subject.of.test: RORgT (Homo sapiens, UniProt P51449)
Construct: Gal4 (fusion partner); expressed in transfected cells; host or cells: engineered Jurkat cells (Jurkat pEx/Gal/hRORγ CLBD/HYG pG5luc/blast)
experiment.description: RORgT Gal4 Luciferase Reporter Gene Assay
Assay type: cell-based
run.parameters: engineered Jurkat cells overexpressing RORgT (LBD or full length) with Gal4 Luc reporter; 18 hours at 37° C.; 40 μM to 0.67 nM; read-out: RORg_GAL4 EC50
pEC50: −log10 of the molar value.
# label = Yes if pEC50 >= 7 else No

Form field: pEC50 at least 7? Entry: COc1ccc(Oc2c(Cl)cc(NC(=O)NCCS(N)(=O)=O)cc2Cl)cc1C(C)C
No

Quick check, pEC50 >= 7? CCS(=O)(=O)c1ccccc1CNC(=O)c1cc(Cl)c(Oc2ccc(OC)c(C(C)C)c2)c(Cl)c1
No

Decide: is the reported value of pEC50 for COc1ccc(Oc2c(Cl)cc(NC(=O)Cc3cncn3C)cc2Cl)cc1C(C)C equal to or greater than 7?
No

Item COc1ccc(Oc2c(Cl)ccc(CNC(=O)CCC3CCN(S(C)(=O)=O)CC3)c2Cl)cc1C(C)C with pEC50 of 7 or above?
No

Check the entry COc1ccc(Oc2c(Cl)cc(NC(=O)CN3CC(NS(=O)(=O)C4CC4)C3)cc2Cl)cc1C(C)C : does pEC50 equal or exceed 7?
No

###

subject.of.test: RORgT (Homo sapiens)
Construct: Gal4 (fusion partner); expressed in transfected cells; host or cells: engineered Jurkat cells (Jurkat pEx/Gal/hRORγ CLBD/HYG pG5luc/blast)
experiment.description: RORgT Gal4 Luciferase Reporter Gene Assay
Format: cell-based
run.parameters: engineered Jurkat cells overexpressing RORgT (LBD or full length) with Gal4 Luc reporter; 18 hours at 37° C.; 40 μM to 0.67 nM; read-out: RORg_GAL4 EC50
Protocol: The compound and the cells were incubated for 18 hours at 37° C. in a cell culture incubator. Cells were then lysed with 15 uL of Steady-Glo Luciferase Assay reagent (Promega EZ550), followed by centrifuging the assay plates at 1500 RPM for 1 minute. Subsequently, the plates were read on the Envision (PerkinElmer). […]
Listing of recorded pEC50 by entry.
By convention, pEC50 is the negative base-10 log of a molar concentration.

molecule: COc1ccc(Oc2c(Cl)cc(NC(=O)CC3CCN(S(C)(=O)=O)CC3)cc2Cl)cc1C(C)(C)C
subject.of.test: RORgT (Homo sapiens)
pEC50: 7.72
//
molecule: COc1ncc(Oc2c(Cl)ccc(NC(=O)CC3CCN(S(C)(=O)=O)CC3)c2Cl)cc1C(C)C
subject.of.test: RORgT (Homo sapiens)
pEC50: 7.96

As a next step, examine the molecule that follows.
Return pEC50 for the following molecule: COc1ccc(Oc2c(Cl)ccc(CN(C)C(=O)c3ccc(S(C)(=O)=O)cc3)c2Cl)cc1C(C)C
7.02

###

subject.of.test: RORgT (Homo sapiens)
Construct: Gal4 (fusion partner); expressed in transfected cells; host or cells: engineered Jurkat cells (Jurkat pEx/Gal/hRORγ CLBD/HYG pG5luc/blast)
Sequence (P51449 267-516): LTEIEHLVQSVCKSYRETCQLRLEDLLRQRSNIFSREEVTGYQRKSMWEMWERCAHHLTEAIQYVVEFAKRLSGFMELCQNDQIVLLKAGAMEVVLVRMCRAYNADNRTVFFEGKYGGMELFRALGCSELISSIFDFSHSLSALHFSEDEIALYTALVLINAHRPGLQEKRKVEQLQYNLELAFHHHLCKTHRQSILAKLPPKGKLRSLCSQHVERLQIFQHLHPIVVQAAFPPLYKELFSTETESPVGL
experiment.description: RORgT Gal4 Luciferase Reporter Gene Assay
Format: cell-based
run.parameters: engineered Jurkat cells overexpressing RORgT (LBD or full length) with Gal4 Luc reporter; 18 hours at 37° C.; 40 μM to 0.67 nM; read-out: RORg_GAL4 EC50
Description: The compound and the cells were incubated for 18 hours at 37° C. in a cell culture incubator. Cells were then lysed with 15 uL of Steady-Glo Luciferase Assay reagent (Promega EZ550), followed by centrifuging the assay plates at 1500 RPM for 1 minute. Subsequently, the plates were read on the Envision (PerkinElmer). […]
measure: pEC50
Would you please state pEC50, meaning minus log10 of the concentration in mol/L, as a bare number?

molecule: COc1ccc(Oc2c(Cl)ccc(CNC(=O)CN3CCN(S(N)(=O)=O)CC3)c2Cl)cc1C(C)C [Example 90]
subject.of.test: RORgT (Homo sapiens)
pEC50: 7.89
//
molecule: CCS(=O)(=O)N1CCC[C@H](CC(=O)Nc2cc(Cl)c(Oc3ccc(OC)c(C(C)C)c3)c(Cl)c2)C1 [Example 323]
subject.of.test: RORgT (Homo sapiens)
pEC50: 7.04
//
molecule: COc1ccc(Oc2c(Cl)cc(NC(=O)CN3CC[C@@H](NS(=O)(=O)C4CC4)C3)cc2Cl)cc1C(C)C [Example 161]
subject.of.test: RORgT (Homo sapiens)
pEC50: 5.63

Now for the molecule whose pEC50 we want.
Using known records, supply pEC50 for CC(C)c1cc(F)cc(Oc2c(Cl)cc(NC(=O)OC3CCCN(S(C)(=O)=O)C3)cc2Cl)c1 (stereo not shown) [Example 25]
6.20
